This collection of values is drawn from patent US9895413B2.

Molecular target: DNP-SG ATPase (RalBP1) mediated DOX-transport in crude erythrocyte membrane vesicles (Homo sapiens, UniProt Q15311)
Construct: from tissue; host or cells: crude erythrocyte membrane vesicles
Sequence (Q15311 1-655): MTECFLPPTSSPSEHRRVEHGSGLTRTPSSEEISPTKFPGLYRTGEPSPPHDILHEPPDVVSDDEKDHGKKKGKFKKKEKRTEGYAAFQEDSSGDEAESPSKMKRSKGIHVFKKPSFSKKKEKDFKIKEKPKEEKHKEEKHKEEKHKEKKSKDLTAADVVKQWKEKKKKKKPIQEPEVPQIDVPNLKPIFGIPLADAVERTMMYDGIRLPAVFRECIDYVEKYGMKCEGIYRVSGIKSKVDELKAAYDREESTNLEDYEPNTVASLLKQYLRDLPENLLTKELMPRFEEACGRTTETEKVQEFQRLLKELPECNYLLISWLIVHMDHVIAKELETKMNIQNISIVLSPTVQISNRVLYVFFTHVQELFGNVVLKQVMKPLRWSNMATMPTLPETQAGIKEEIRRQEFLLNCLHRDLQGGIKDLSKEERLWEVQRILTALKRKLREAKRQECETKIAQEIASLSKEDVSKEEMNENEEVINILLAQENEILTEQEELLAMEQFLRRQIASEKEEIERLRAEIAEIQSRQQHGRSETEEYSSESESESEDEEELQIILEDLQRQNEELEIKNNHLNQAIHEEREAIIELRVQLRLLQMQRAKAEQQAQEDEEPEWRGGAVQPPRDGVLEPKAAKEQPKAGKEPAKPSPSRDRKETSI
Experiment: ATP-dependent DOX transport in crude erythrocyte membrane vesicles, inhibition
Assay type: biochemical
Property name: Inhibition of DOX transport

Some solved cases for reference:
- Molecule: "C=CC1=C(C)/C(=C/c2[nH]c(Cc3[nH]c(/C=C4\\NC(=O)C(C)=C4C=C)c(C)c3CCC(=O)NCCS(=O)(=O)O)c(CCC(=O)NCCS(=O)(=O)O)c2C)NC1=O [bilirubin-ditaurate]"
  Inhibition of DOX transport: "competitively inhibited"
- Molecule: "O=C1c2c(O)ccc(O)c2C(=O)c2c(NCCNCCO)ccc(NCCNCCO)c21"
  Inhibition of DOX transport: "competitively inhibited"
- Molecule: "CC[C@]1(O)C[C@@H]2CN(CCc3c([nH]c4ccccc34)[C@@](C(=O)OC)(c3cc4c(cc3OC)N(C)[C@H]3[C@@](O)(C(=O)OC)[C@H](OC(C)=O)[C@]5(CC)C=CCN6CC[C@]43[C@@H]65)C2)C1"
  Inhibition of DOX transport: "competitively inhibited"
- Molecule: "N[C@@H](CCC(=O)N[C@@H](CSc1ccc([N+](=O)[O-])cc1[N+](=O)[O-])C(=O)NCC(=O)O)C(=O)O"
  Inhibition of DOX transport: "competitively inhibited"

Attention now shifts to the item below.
Prompt line: Specify reported Inhibition of DOX transport for the molecule shown: `COc1cccc2c1C(=O)c1c(O)c3c(c(O)c1C2=O)C[C@@](O)(C(C)=O)C[C@@H]3O[C@H]1C[C@H](N)[C@H](O)[C@H](C)O1`
Response line: competitively inhibited
